Cited source for all entries: patent US8420144B2

# MEASURED TARGET: human CaSR (Homo sapiens)
# Sequence (P41180 20-1078): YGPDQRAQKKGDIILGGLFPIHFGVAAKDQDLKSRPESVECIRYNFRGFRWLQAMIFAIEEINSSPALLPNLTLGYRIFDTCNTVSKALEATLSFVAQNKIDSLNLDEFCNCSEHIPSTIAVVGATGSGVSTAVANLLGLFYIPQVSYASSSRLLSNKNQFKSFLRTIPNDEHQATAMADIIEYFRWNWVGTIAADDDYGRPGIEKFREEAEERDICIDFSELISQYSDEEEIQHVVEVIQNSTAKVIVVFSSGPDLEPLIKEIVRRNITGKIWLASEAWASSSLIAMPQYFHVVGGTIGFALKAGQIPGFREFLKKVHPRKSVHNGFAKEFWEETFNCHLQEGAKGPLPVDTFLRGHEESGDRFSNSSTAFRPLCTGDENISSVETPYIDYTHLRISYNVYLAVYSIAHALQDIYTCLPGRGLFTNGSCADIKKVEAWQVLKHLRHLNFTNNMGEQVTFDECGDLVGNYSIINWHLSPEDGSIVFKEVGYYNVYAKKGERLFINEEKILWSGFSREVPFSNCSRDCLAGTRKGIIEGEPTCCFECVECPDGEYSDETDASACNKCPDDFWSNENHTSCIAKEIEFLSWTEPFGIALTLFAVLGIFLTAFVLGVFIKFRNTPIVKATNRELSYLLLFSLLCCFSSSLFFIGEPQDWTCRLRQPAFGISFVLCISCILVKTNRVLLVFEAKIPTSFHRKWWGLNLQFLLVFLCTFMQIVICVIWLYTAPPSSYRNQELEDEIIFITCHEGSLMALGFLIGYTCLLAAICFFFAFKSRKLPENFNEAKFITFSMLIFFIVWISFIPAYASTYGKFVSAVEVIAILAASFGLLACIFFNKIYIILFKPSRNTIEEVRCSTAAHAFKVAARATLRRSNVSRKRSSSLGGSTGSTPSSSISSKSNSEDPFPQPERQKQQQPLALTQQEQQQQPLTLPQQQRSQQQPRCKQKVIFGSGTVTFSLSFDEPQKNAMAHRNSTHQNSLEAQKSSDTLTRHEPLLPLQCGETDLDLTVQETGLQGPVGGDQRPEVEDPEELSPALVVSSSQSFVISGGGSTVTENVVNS
# METHOD NOTES: Calcium receptor (CaSR) activation activity: calcium imaging in HEK 293 cells expressing human CaSR
# RUN CONDITIONS: concentration giving 50% of the maximal activity; single values n = 1, others n = 2 or 3
Numbered stars: 1 amine (or outer) side, 2 acyl side, 3 side chain; on linkers, the order of the positions; unused ones are H or OH. Square brackets hold non-standard residues; d marks the D form. Peptide text beside a SMILES is read from it. γGlu = O=C(O)[C@H](CCC(=O)[*:2])N[*:1]; Tle = CC(C)(C)[C@H](N)C(=O)O
QUANTITY NAME: EC50

Worked examples, 2 compounds total:
Field request: EC50 | item: CC(C)(C)[C@H](NC(=O)CC[C@H](N)C(=O)O)C(=O)NCC(=O)O [γ-Glu-t-Leu-Gly] (γGlu-[Tle]-Gly-OH)
43 to 77 nM

Field request: EC50 | item: CC(C)(C)[C@H](NC(=O)CC[C@H](N)C(=O)O)C(=O)OCC(=O)O [γ-Glu-t-Leu-GlyA]
50 nM

For the next question, use this compound.
Field request: EC50 | item: N[C@@H](CCC(=O)NC1(C(=O)NCC(=O)O)CCCC1)C(=O)O [γ-Glu-Cle-Gly]
500 to 1500 nM
